Assay: Stability of the analytes in human plasma at QC levels
Type: in vitro ADME
Conditions: middle QC; autosampler r.t., 24 h; n = 5
measured quantity: The autosampler Dev. (24h, %)

compound: CCC(=O)OCC(=O)[C@@]1(O)[C@@H](C)C[C@H]2[C@@H]3CCC4=CC(=O)C=C[C@]4(C)[C@@]3(F)[C@@H](O)C[C@@]21C [B21P, betamethasone 21-monopropionate]
measured quantity: The autosampler Dev. (24h, %)
result: 2.05

compound: CCC(=O)OCC(=O)[C@@]1(OC(=O)CC)[C@@H](C)C[C@H]2[C@@H]3CCC4=CC(=O)C=C[C@]4(C)[C@@]3(F)[C@@H](O)C[C@@]21C [BDP, betamethasone dipropionate]
measured quantity: The autosampler Dev. (24h, %)
result: −7.45

compound: CCC(=O)O[C@]1(C(=O)CO)[C@@H](C)C[C@H]2[C@@H]3CCC4=CC(=O)C=C[C@]4(C)[C@@]3(F)[C@@H](O)C[C@@]21C [B17P, betamethasone 17-monopropionate]
measured quantity: The autosampler Dev. (24h, %)
result: 7.80

compound: C[C@H]1C[C@H]2[C@@H]3CCC4=CC(=O)C=C[C@]4(C)[C@@]3(F)[C@@H](O)C[C@]2(C)[C@@]1(O)C(=O)COP(=O)([O-])[O-].[Na+].[Na+] [BSP, betamethasone sodium phosphate]
measured quantity: The autosampler Dev. (24h, %)
result: 1.08
